Item-by-item account of pKd
MEASURED TARGET: T1, SA2 (STAG2), full length (human, UniProt Q8N3U4 1-1231)
T1 sequence: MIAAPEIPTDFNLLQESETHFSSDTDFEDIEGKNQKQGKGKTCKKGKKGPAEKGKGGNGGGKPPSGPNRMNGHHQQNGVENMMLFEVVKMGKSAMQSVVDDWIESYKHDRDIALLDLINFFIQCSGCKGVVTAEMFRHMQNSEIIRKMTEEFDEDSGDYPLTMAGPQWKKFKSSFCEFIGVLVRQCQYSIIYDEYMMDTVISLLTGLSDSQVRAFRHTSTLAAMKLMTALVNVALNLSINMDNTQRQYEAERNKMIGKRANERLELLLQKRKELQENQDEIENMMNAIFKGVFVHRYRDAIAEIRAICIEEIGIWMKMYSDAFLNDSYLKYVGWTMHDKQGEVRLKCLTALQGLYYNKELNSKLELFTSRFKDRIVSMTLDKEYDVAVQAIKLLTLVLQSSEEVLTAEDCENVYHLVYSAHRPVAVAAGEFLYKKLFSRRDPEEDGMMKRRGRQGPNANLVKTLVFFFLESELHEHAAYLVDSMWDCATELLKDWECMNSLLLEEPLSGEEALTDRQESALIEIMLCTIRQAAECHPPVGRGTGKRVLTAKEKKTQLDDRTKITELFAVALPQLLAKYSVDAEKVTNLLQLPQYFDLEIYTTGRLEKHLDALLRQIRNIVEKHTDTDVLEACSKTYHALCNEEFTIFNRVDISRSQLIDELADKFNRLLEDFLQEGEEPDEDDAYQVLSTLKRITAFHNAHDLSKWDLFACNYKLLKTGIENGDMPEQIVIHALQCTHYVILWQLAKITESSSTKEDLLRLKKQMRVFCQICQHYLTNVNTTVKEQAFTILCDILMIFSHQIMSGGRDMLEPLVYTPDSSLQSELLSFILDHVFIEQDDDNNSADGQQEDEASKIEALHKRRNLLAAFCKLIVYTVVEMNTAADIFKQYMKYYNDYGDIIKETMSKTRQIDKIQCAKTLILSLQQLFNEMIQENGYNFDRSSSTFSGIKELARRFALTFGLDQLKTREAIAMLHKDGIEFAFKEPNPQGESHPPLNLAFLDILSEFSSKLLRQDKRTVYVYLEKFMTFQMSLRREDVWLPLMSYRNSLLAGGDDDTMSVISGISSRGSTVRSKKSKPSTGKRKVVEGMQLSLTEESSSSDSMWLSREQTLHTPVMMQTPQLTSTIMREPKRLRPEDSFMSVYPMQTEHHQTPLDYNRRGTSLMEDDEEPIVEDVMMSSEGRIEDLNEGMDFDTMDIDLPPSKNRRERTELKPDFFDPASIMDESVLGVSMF
PROTOCOL DESCRIPTION: fluorescence anisotropy; uncertain: low saturation; Anisotropy: 20 mM Hepes pH 7.5, 0.1 mM MgCl2, 0.5 mM DTT, 100 mM KCl, 1 nM DNA; AFM: 20 mM Hepes pH 7.5, 100 mM KCl, 0.1 mM MgCl2, room temperature, 20 min
EXPERIMENTAL PARAMETERS: protein: recombinant; tags: 6xHis; label: 5' Alexa 488
pKd: −log10 of the molar value.

BINDER | MEASURED
TGTCGCATAGTGTAG (ssDNA) [ss15] | ~6.00

Query: pKd lookup needed for TGTCGCATAGTGTAGTCGGTCTTGT (ssDNA) [ss25] , thanks.
Response: ~6.35
